Tested on: HS 578T breast
Experimental protocol: NCI tumour cell line growth inhibition, 48 h
Measured metric: TGI

Prompt line: Return reported TGI; argument: CC1OC2=N[C@@H]1C(=O)N[C@@H](C(C)C)C1=N[C@H](C(=O)N[C@@H](C(C)C)C3=N[C@H](C(=O)N[C@@H](C(C)C)C4=N[C@H](C(=O)N[C@H]2C(C)C)C(C)O4)C(C)O3)C(C)O1 (stereo partly drawn)
Response line: > 10 µM

Prompt line: Return reported TGI; argument: C/C(=C\c1ccccn1)c1ccccn1
Response line: > 100 µM

Prompt line: Return reported TGI; argument: COc1cc2nc(-c3ccc4ccccc4c3)[nH]c(=O)c2cc1OC
Response line: > 100 µM

###

Listing of recorded TGI by entry.
Tested on: SW-620 colon
Experimental protocol: NCI tumour cell line growth inhibition, 48 h

Solved cases below.
# Molecule, TGI
data = [
    ("Cc1cc(=O)n2nc(SCc3ccccc3)sc2n1", "> 100 µM"),
    ("CCCCC1CC(c2cccc([N+](=O)[O-])c2)=NO1 (centres undefined)", "> 100 µM"),
]

Prompt line: Return reported TGI; argument: O=C1C=CC=CC2CC=C[C@@H](O)C12 (some centres undefined)
Response line: 35.3 µM

Prompt line: Return reported TGI; argument: NC1CCCCC1.[O]=[Ge].[O]=[Ge].[O]=[Ge][OH].[O]=[Ge][OH]
Response line: > 100 µM

Prompt line: Return reported TGI; argument: CCn1c(C(=O)N(C2CC2)C2CC2)cc2c3c(ncn3C)c(Nc3cc(C)n(C)n3)nc21
Response line: > 100 µM

Prompt line: Return reported TGI; argument: O=C(CCN1CCCC1)Nc1ccc2sc3ccccc3c(=O)c2n1
Response line: 19.9 µM

Prompt line: Return reported TGI; argument: CCOC(=O)c1c(N2CCCC2)ncn(-c2ccccc2)c1=S
Response line: > 100 µM

Prompt line: Return reported TGI; argument: COc1ccc(Nc2ncc(Br)c(NCCCNC(=O)C3CCC3)n2)cc1
Response line: > 100 µM

Prompt line: Return reported TGI; argument: CC(=O)Nc1ccc(C(=O)NN2C(=O)C(Cl)C2c2ccc([N+](=O)[O-])cc2)cc1 (centres undefined)
Response line: > 100 µM

###

Listing of recorded TGI by entry.
Test system: LOX IMVI melanoma
Experimental protocol: NCI tumour cell line growth inhibition, 48 h

# Molecule, Measured metric, Result
measured = [
    ("O=C1NC(=O)/C(=C/c2ccc(S(=O)(=O)N/N=C/c3ccc(Cl)cc3)cc2)N1", "TGI", "> 100 µM"),
    ("CN(C)c1ccc([O-])cc1.CN(C)c1ccc([O-])cc1.CN(C)c1ccc([O-])cc1.CN(C)c1ccc([O-])cc1.[Ti+4]", "TGI", "> 100 µM"),
    ("O=[N+]([O-])c1c(Br)cc(Br)c2c1Nc1c(ccc(Cl)c1Cl)S2", "TGI", "8.78 µM"),
    ("COc1ccc(NC(=O)C(=O)Cc2nc3ccc([N+](=O)[O-])cc3[nH]c2=O)c(OC)c1", "TGI", "> 100 µM"),
    ("Cn1nc2n(c1=O)CCCN2", "TGI", "> 100 µM"),
]

Prompt line: API: value(readout=TGI, system=LOX IMVI melanoma) for record COc1cc(/C=C\c2ccc(C)cc2)cc(OC)c1OC
Response line: 38.7 µM

Prompt line: API: value(readout=TGI, system=LOX IMVI melanoma) for record N/N=C1/C2CN3CCN(C2)CC1(c1ccc([N+](=O)[O-])cc1)C3
Response line: > 100 µM

###

Listing of recorded TGI by entry.
Test system: HS 578T breast
Experimental protocol: NCI tumour cell line growth inhibition, 48 h

Solved cases below.
# Line notation, Measured metric, Result
records = [
    ("O=C1NC(=O)/C(=C/c2ccc(S(=O)(=O)N/N=C/c3ccc(Cl)cc3)cc2)N1", "TGI", "> 100 µM"),
    ("C=C1SC(=Nc2c(C)cc(C)cc2C)N(C(=O)c2sc3ccccc3c2Cl)C12CCCCC2", "TGI", "> 100 µM"),
]

Consider the additional molecule presented here.
Prompt line: Return reported TGI; argument: CC[N+](C)(CC)CCC(O)(c1ccccc1)c1ccccc1
Response line: > 100 µM

###

System: SNB-75 CNS
Experimental protocol: NCI tumour cell line growth inhibition, 48 h
Measured metric: TGI

Solved cases below.
# Compound, TGI
records = [
    ("COc1ccccc1/C=C1\\CCC(CCN(C)C)(C2=CCCC2)C1=O (stereo not drawn)", "54.7 µM"),
    ("COc1ccc2c(c1)/C(=C\\c1cccnc1)C(=O)N2", "68.1 µM"),
    ("CCCCS(=O)CCC(N)C(=O)O (stereo not drawn)", "> 100 µM"),
    ("O=C1CCC2(CCO1)OCCO2", "> 100 µM"),
    ("COC(=O)C1CCC(=O)N1C(=O)Cc1ccc(OC)cc1 (stereo not drawn)", "> 100 µM"),
    ("COc1ccc(-c2nc3sc(-c4ccc(Cl)cc4)cn3n2)cc1", "6.85 µM"),
    ("CCCCc1c2c(nc3c1CCc1cc4cc5c(nc4nc1-3)-c1nc3c(c(CCCC)c1CC5)CCCC3)CCCC2", "> 100 µM"),
]

Prompt line: API: value(readout=TGI, system=SNB-75 CNS) for record Cc1c(S(C)(=O)=O)c(-c2cc(F)cc(N3CCN(c4ccc(NS(=O)(=O)c5ccc(N[C@H](CCN6CCC(C(=O)OCCCP(=O)(O)O)CC6)CSc6ccccc6)c(S(=O)(=O)C(F)(F)F)c5)cc4)CC3)c2)c(-c2ccc(Cl)cc2)n1C(C)C
Response line: > 100 µM

###

Listing of recorded TGI by entry.
System: T-47D breast
Experimental protocol: NCI tumour cell line growth inhibition, 48 h

Solved cases below.
# Line notation, Experimental target, TGI
rows = [
    ("C=CCN(/C=C1/C(=O)O[C@H](COC)[C@@]2(C)C1=C(O)C(=O)C1=C2[C@H](OC(C)=O)C[C@]2(C)C(=O)CC[C@@H]12)CC=C", "T-47D breast", "> 3.78 µM"),
    ("O=C(/C(=C\\C(=O)c1cccs1)c1ccsc1)c1ccc(Br)cc1", "T-47D breast", "> 100 µM"),
    ("CC(=O)/C(=C/n1c(=S)[nH]c2ccccc21)C(=O)Nc1ccccc1C", "T-47D breast", "> 100 µM"),
    ("N#CC(C#N)=C1C(C#N)=C(N)NC12OCCO2", "T-47D breast", "> 100 µM"),
    ("CCn1c(C(=O)N(C2CC2)C2CC2)cc2c3c(ncn3C)c(Nc3cc(C)n(C)n3)nc21", "T-47D breast", "> 100 µM"),
]

Prompt line: Return reported TGI; argument: C=C1SC(=Nc2c(C)cc(C)cc2C)N(C(=O)c2sc3ccccc3c2Cl)C12CCCCC2
Response line: > 100 µM

###

System: MDA-MB-231 breast
Experimental protocol: NCI tumour cell line growth inhibition, 48 h
Measured metric: TGI

Prompt line: Return reported TGI; argument: N=C1N(S(=O)(=O)c2ccccc2)[C@@H](Cc2ccccc2)[C@H](c2ccccc2)C1(c1ccccc1)c1ccccc1
Response line: > 100 µM

Prompt line: Return reported TGI; argument: Oc1ccc(C(c2ccc(O)cc2)c2ccc(Cl)cn2)cc1
Response line: > 100 µM

Prompt line: Return reported TGI; argument: COc1ccc(C2SCC(=O)N2NC(=O)C(O)c2ccccc2)cc1OC (stereo unspecified)
Response line: > 100 µM

###

Tested on: MOLT-4 leukemia
Experimental protocol: NCI tumour cell line growth inhibition, 48 h
Listing of recorded TGI by entry.

Prompt line: API: value(readout=TGI, system=MOLT-4 leukemia) for record COc1ccccc1N=C(N)N/N=C/c1c[nH]c2ccccc12
Response line: 23.4 µM

Prompt line: API: value(readout=TGI, system=MOLT-4 leukemia) for record COc1nc2c(c(=O)n1C)N[C@H]1[C@H](OC(C)=O)[C@@H](OC(C)=O)CO[C@H]1N2
Response line: > 100 µM

Prompt line: API: value(readout=TGI, system=MOLT-4 leukemia) for record COc1ccc(C2SCC(=O)N2NC(=O)C(O)c2ccccc2)cc1OC (configuration not stated)
Response line: > 100 µM

Prompt line: API: value(readout=TGI, system=MOLT-4 leukemia) for record Oc1cc(O)c(Oc2cccc(O)c2O)c(O)c1
Response line: > 100 µM

Prompt line: API: value(readout=TGI, system=MOLT-4 leukemia) for record CCC(=O)O[C@H]1CC[C@H]2[C@@H]3CC[C@H]4CC(=O)[C@H](C)C[C@]4(C)[C@H]3CC[C@]12C
Response line: > 85.6 µM

Prompt line: API: value(readout=TGI, system=MOLT-4 leukemia) for record COc1ccc(-c2cc(=O)c3c(C)cc(C)nc3[nH]2)cc1
Response line: 42.9 µM

Prompt line: API: value(readout=TGI, system=MOLT-4 leukemia) for record O=C(/C=C/C12c3ccccc3C(c3ccccc31)C1C(=O)N(c3ccccc3)C(=O)C12)c1ccccc1 (configuration not stated)
Response line: > 100 µM
